Measurement Protocol: dynamic solubility in simulated gastrointestinal fluid
Assay type: physicochemical
Stated Conditions: fessif, thermodynamic from solid; simulated postprandial intestinal fluid, 37° C., 4 h
Protocol: After 24 h, the pH of the suspension was determined. The remaining suspension was centrifuged, and the remaining solid was subjected to XRPD characterization.
Recorded Endpoint: solubility at 4 h (µg/mL)
One number for each entry, in µg/mL.

Data request: Identify measured solubility at 4 h corresponding to Cc1cnc(Nc2cnn(C3CC(C)(C)OC(C)(C)C3)c2)nc1-c1ccc(C(=O)NCC#N)cc1 [crystal form I]
Data returned: 474

---

System Under Test: TYK2 (Homo sapiens, UniProt P29597)
Sequence (P29597 whole entry): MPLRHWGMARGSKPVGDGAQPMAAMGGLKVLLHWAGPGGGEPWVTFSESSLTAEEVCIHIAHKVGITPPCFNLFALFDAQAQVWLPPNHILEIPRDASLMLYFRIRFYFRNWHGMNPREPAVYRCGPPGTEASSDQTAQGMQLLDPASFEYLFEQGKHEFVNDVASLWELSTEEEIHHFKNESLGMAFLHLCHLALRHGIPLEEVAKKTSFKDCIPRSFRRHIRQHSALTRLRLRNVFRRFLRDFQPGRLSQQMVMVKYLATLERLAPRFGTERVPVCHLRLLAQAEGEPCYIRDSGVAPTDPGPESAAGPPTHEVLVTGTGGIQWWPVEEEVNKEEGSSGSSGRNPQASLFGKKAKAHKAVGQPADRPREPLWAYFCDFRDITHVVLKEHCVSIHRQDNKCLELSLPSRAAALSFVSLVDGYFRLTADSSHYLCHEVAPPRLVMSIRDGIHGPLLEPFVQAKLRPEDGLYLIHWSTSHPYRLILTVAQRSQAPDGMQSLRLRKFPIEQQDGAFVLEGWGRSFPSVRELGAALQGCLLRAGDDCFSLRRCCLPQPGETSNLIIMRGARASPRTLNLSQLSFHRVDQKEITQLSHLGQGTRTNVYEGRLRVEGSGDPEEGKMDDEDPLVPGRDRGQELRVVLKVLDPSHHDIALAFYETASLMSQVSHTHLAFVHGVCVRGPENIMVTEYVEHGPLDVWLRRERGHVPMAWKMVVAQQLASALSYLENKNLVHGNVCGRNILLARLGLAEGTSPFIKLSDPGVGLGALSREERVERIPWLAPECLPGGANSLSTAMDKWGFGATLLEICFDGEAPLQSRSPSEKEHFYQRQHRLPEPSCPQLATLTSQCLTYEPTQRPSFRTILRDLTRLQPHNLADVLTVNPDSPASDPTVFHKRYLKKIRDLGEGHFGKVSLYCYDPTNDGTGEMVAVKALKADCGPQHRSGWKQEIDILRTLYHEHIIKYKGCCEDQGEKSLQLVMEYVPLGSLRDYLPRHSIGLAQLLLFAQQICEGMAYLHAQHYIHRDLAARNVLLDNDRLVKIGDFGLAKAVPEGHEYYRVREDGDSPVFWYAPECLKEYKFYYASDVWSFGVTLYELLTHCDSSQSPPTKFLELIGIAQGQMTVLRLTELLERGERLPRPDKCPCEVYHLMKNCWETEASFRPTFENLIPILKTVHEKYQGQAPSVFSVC
Measurement Protocol: migration detection kinase assay, TYK2
Type: biochemical
Stated Conditions: 1 mM ATP
Recorded Endpoint: pIC50
Give bare numbers, as −log10 of the molar value.

Data request: Identify measured pIC50 corresponding to Cc1cnc(Nc2cnn(C3CC(C)(C)OC(C)(C)C3)c2)nc1-c1ccc(C(=O)NCC#N)cc1 [crystal form I]
Data returned: 9.00

---

Measurement Protocol: dynamic solubility in simulated gastrointestinal fluid
Type: physicochemical
Stated Conditions: simulated gastric fluid, thermodynamic from solid; simulated gastric juice, 37° C., 4 h
Recorded Endpoint: solubility at 4 h
Param answer (str): number followed by unit.

Data request: Identify measured solubility at 4 h corresponding to Cc1cnc(Nc2cnn(C3CC(C)(C)OC(C)(C)C3)c2)nc1-c1ccc(C(=O)NCC#N)cc1 [crystal form I]
Data returned: 0.0923 mg/mL

---

Measurement Protocol: dynamic solubility in simulated gastrointestinal fluid
Assay type: physicochemical
Stated Conditions: fassif, thermodynamic from solid; simulated pre-meal intestinal fluid, 37° C., 24 h
Protocol: After 24 h, the pH of the suspension was determined. The remaining suspension was centrifuged, and the remaining solid was subjected to XRPD characterization.
Recorded Endpoint: solubility at 24 h (µg/mL)
One number for each entry, in µg/mL.

Data request: Identify measured solubility at 24 h corresponding to Cc1cnc(Nc2cnn(C3CC(C)(C)OC(C)(C)C3)c2)nc1-c1ccc(C(=O)NCC#N)cc1 [crystal form I]
Data returned: 120

---

System Under Test: JAK1 (Homo sapiens)
Sequence (P23458 whole entry): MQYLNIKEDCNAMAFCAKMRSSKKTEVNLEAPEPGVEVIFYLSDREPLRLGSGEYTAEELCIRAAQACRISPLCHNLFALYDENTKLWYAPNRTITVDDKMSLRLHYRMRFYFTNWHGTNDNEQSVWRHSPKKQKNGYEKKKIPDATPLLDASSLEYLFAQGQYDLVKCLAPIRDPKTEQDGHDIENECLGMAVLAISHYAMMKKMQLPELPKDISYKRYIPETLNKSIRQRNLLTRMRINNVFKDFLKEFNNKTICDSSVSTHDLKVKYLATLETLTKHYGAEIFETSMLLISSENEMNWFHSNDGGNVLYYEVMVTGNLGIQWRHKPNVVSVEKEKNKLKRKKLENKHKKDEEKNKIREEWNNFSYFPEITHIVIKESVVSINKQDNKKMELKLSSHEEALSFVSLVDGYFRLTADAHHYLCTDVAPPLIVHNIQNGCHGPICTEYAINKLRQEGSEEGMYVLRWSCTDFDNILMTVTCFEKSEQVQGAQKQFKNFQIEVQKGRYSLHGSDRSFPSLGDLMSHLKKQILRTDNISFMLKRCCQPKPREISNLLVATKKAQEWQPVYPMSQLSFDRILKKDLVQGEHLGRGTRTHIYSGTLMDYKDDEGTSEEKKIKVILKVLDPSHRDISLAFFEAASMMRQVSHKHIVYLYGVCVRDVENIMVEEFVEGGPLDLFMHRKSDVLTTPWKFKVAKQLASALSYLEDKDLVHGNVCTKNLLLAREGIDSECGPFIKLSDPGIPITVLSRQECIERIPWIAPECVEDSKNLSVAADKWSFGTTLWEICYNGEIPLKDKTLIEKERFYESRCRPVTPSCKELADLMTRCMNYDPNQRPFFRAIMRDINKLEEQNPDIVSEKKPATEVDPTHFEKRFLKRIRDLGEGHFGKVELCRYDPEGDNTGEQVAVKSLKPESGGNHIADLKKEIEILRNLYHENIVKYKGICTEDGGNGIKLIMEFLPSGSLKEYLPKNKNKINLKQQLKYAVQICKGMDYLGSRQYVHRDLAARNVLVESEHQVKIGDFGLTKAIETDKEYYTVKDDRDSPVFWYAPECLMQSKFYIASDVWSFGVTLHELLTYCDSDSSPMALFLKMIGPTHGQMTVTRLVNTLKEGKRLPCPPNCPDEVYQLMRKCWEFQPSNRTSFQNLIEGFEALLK
Recorded Endpoint: IC50 (nM)
Numbers only, in nM.

Data request: State, for JAK1 (Homo sapiens), measured IC50 of the compound listed here: Cc1cnc(Nc2cnn(C3CC(C)(C)OC(C)(C)C3)c2)nc1-c1ccc(C(=O)NCC#N)cc1 [crystal form I]
Data returned: 10

---

Measurement Protocol: dynamic solubility in simulated gastrointestinal fluid
Assay type: physicochemical
Stated Conditions: simulated gastrointestinal fluid, 37 °C, fassgf or other biorelevant, thermodynamic from solid; summary statement
Recorded Endpoint: solubility

Data request: Identify measured solubility corresponding to Cc1cnc(Nc2cnn(C3CC(C)(C)OC(C)(C)C3)c2)nc1-c1ccc(C(=O)NCC#N)cc1 [crystal form I]
Data returned: > 8 µg/mL

---

Measurement Protocol: dynamic solubility in simulated gastrointestinal fluid
Format: physicochemical
Stated Conditions: fessif, thermodynamic from solid; simulated postprandial intestinal fluid, 37° C., 24 h
Recorded Endpoint: solubility at 24 h (µg/mL)
Give bare numbers, in µg/mL.

Data request: Identify measured solubility at 24 h corresponding to Cc1cnc(Nc2cnn(C3CC(C)(C)OC(C)(C)C3)c2)nc1-c1ccc(C(=O)NCC#N)cc1 [crystal form I]
Data returned: 627

---

Measurement Protocol: dynamic solubility in simulated gastrointestinal fluid
Format: physicochemical
Stated Conditions: simulated gastric fluid, thermodynamic from solid; simulated gastric juice, 37° C., 1 h
Recorded Endpoint: solubility at 1 h (µg/mL)
Numbers only, in µg/mL.

Data request: Identify measured solubility at 1 h corresponding to Cc1cnc(Nc2cnn(C3CC(C)(C)OC(C)(C)C3)c2)nc1-c1ccc(C(=O)NCC#N)cc1 [crystal form I]
Data returned: 97.4
